Assay summary: Ionisation constant in presence of base
Type: ADME
Below, each entry is listed alongside its reported pKa.
Give only the figure.

Cpd smiles	pKa
Cc1c(Cn2ccnc2)n(C)c2ccc(C(=O)O)cc12	6.32
Cc1c(Cn2ccnc2)sc2ccc(C(=O)O)cc12	6.58

Give reported pKa value for `O=C(O)c1ccc2sc(Cn3ccnc3)cc2c1`
6.34

Give reported pKa value for `Cc1c(Cn2ccnc2)oc2ccc(C(=O)O)cc12`
6.08

* * *

# collection of IC50 values tested on Thromboxane-A synthase (Homo sapiens)
# Sequence (P24557 whole entry): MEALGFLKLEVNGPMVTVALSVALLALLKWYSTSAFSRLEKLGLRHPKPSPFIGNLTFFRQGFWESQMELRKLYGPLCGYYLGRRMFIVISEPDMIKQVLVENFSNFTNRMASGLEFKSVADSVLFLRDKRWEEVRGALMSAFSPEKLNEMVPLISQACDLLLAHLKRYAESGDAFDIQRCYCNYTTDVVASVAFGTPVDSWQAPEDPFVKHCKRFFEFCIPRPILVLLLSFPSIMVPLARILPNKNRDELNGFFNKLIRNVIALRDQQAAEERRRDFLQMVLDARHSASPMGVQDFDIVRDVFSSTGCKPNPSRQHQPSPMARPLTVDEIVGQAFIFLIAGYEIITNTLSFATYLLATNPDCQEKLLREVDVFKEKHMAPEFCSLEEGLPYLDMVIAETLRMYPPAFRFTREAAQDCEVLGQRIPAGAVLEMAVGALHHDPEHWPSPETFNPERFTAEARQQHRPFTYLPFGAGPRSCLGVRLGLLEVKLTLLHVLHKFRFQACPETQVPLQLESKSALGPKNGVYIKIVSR
Expressed in nM, but write only the number.

Worked set:
Cpd smiles	IC50 (nM)
Cc1c(Cn2ccnc2)n(C)c2ccc(C(=O)O)cc12	32
O=C(O)c1ccc2oc(Cn3ccnc3)c(Br)c2c1	30
O=C(O)c1ccc2oc(Cn3ccnc3)cc2c1	12
Cc1c(Cn2ccnc2)oc2ccc(C(=O)O)cc12	34

Give Thromboxane-A synthase (Homo sapiens) IC50 for the following compound: `Cc1c(Cn2ccnc2)sc2ccc(C(=O)O)cc12`
17

* * *

Below, each entry is listed alongside its reported pKa.
Assay summary: Ionisation constant in presence of acid
Assay type: ADME

Worked set:
Cpd smiles	pKa
Cc1c(Cn2ccnc2)n(C)c2ccc(C(=O)O)cc12	4.08
Cc1c(Cn2ccnc2)sc2ccc(C(=O)O)cc12	3.82
Cc1c(Cn2ccnc2)oc2ccc(C(=O)O)cc12	3.91

Okay, now this compound:
Give reported pKa value for `O=C(O)c1ccc2sc(Cn3ccnc3)cc2c1`
3.9

Attribution: ChEMBL document CHEMBL1123364
